Test system: 873145-292-R-J1-PDC complex spheroid viability
Assay: Anticancer human tumor 873145-292-R-J1-PDC patient-derived renal clear cell carcinoma cell line growth inhibition [POLQ]
Settings: second compound 3.16 µM; first compound 3.16 µM; stronger effect = lower value
Reported viability, T/C values for a set of compounds
property-name: viability, T/C (%)

>  <compound>
CCc1cc2c(N3CCc4c(cc(Cn5ccnc5)cc4-c4cn(C)nc4C(F)(F)F)C3=O)cc(C)nc2c(OC)n1 + Cc1cccc(N(C)C(=O)C2C(O)CCN2c2nc(C)cc(C(F)(F)F)c2C#N)c1

>  <property-name>
viability, T/C

>  <measurement-units>
%

>  <observed>
77.2

$$$$
>  <compound>
Nc1ccn(C2OC(CO)C(O)C2(F)F)c(=O)n1 (stereo not drawn) + Cc1cccc(N(C)C(=O)C2C(O)CCN2c2nc(C)cc(C(F)(F)F)c2C#N)c1

>  <property-name>
viability, T/C

>  <measurement-units>
%

>  <observed>
56.1

$$$$
>  <compound>
CCc1cc2c(N3CCc4c(cc(Cn5ccnc5)cc4-c4cn(C)nc4C(F)(F)F)C3=O)cc(C)nc2c(OC)n1 + Nc1ccc(C#CCN(C(=O)Cc2ncc(C(F)(F)F)cc2C(F)(F)F)c2ccc(F)cc2)nn1

>  <property-name>
viability, T/C

>  <measurement-units>
%

>  <observed>
85.7

$$$$

###

Reported viability, T/C values for a set of compounds
System: 873145-292-R-J1-PDC complex spheroid viability
Experiment: Anticancer human tumor 873145-292-R-J1-PDC cell line growth inhibition [POLQ];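 note: spheroids exposed to compounds for 7 days before viability readout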;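 for viability, T/C: luminescence signal used as surrogate for viable cell content; 100% = DMSO vehicle control viability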
Conditions: second compound 1 µM; first compound 1 µM; stronger effect = lower value

>  <compound>
Nc1ccn(C2OC(CO)C(O)C2(F)F)c(=O)n1 (stereo unspecified) + Cc1cccc(N(C)C(=O)C2C(O)CCN2c2nc(C)cc(C(F)(F)F)c2C#N)c1

>  <measurement-units>
%

>  <viability, T/C>
49.6

$$$$
>  <compound>
CC1COCCN1c1cc(-c2ccnn2C)c2ccnc(-c3ccn[nH]3)c2n1 (stereo unspecified) + Nc1ccc(C#CCN(C(=O)Cc2ncc(C(F)(F)F)cc2C(F)(F)F)c2ccc(F)cc2)nn1

>  <measurement-units>
%

>  <viability, T/C>
58.9

$$$$
>  <compound>
COc1cc(C2c3cc4c(cc3C(OC3OC5COC(C)OC5C(O)C3O)C3COC(=O)C23)OCO4)cc(OC)c1O (stereo unspecified) + Cc1cccc(N(C)C(=O)C2C(O)CCN2c2nc(C)cc(C(F)(F)F)c2C#N)c1

>  <measurement-units>
%

>  <viability, T/C>
87

$$$$
>  <compound>
COc1cc2cc(C(=O)CCC(=O)O)sc2cc1OC + Nc1ccc(C#CCN(C(=O)Cc2ncc(C(F)(F)F)cc2C(F)(F)F)c2ccc(F)cc2)nn1

>  <measurement-units>
%

>  <viability, T/C>
105

$$$$
>  <compound>
COc1ccc([C@@H](O)c2cc(-c3ncnc4cc(N5CCOCC5)ccc34)c(F)cc2Cl)nn1 + Nc1ccc(C#CCN(C(=O)Cc2ncc(C(F)(F)F)cc2C(F)(F)F)c2ccc(F)cc2)nn1

>  <measurement-units>
%

>  <viability, T/C>
78.6

$$$$
>  <compound>
COc1cc(C2c3cc4c(cc3C(OC3OC5COC(C)OC5C(O)C3O)C3COC(=O)C23)OCO4)cc(OC)c1O (stereo unspecified) + Nc1ccc(C#CCN(C(=O)Cc2ncc(C(F)(F)F)cc2C(F)(F)F)c2ccc(F)cc2)nn1

>  <measurement-units>
%

>  <viability, T/C>
95.3

$$$$
>  <compound>
CCc1cc2c(N3CCc4c(cc(Cn5ccnc5)cc4-c4cn(C)nc4C(F)(F)F)C3=O)cc(C)nc2c(OC)n1 + Nc1ccc(C#CCN(C(=O)Cc2ncc(C(F)(F)F)cc2C(F)(F)F)c2ccc(F)cc2)nn1

>  <measurement-units>
%

>  <viability, T/C>
95.8

$$$$
>  <compound>
CCc1cc2c(N3CCc4c(cc(Cn5ccnc5)cc4-c4cn(C)nc4C(F)(F)F)C3=O)cc(C)nc2c(OC)n1 + COC1C(OC(N)=O)C(O)C(Oc2ccc3c(O)c(NC(=O)c4ccc(O)c(CC=C(C)C)c4)c(=O)oc3c2C)OC1(C)C

>  <measurement-units>
%

>  <viability, T/C>
84.7

$$$$
>  <compound>
O=c1[nH]cc(F)c(=O)[nH]1 + COC1C(OC(N)=O)C(O)C(Oc2ccc3c(O)c(NC(=O)c4ccc(O)c(CC=C(C)C)c4)c(=O)oc3c2C)OC1(C)C

>  <measurement-units>
%

>  <viability, T/C>
87.7

$$$$
>  <compound>
CNCc1ccc(-c2[nH]c3cc(F)cc4c3c2CCNC4=O)cc1 + Nc1ccc(C#CCN(C(=O)Cc2ncc(C(F)(F)F)cc2C(F)(F)F)c2ccc(F)cc2)nn1

>  <measurement-units>
%

>  <viability, T/C>
94.7

$$$$
>  <compound>
CC1COCCN1c1cc(-c2ccnn2C)c2ccnc(-c3ccn[nH]3)c2n1 (stereo unspecified) + Cc1cccc(N(C)C(=O)C2C(O)CCN2c2nc(C)cc(C(F)(F)F)c2C#N)c1

>  <measurement-units>
%

>  <viability, T/C>
50.4

$$$$

###

System: 873145-292-R-J1-PDC complex spheroid viability
Assay: Anticancer human tumor 873145-292-R-J1-PDC cell line growth inhibition [POLQ];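 note: spheroids exposed to compounds for 7 days before viability readout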;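 for viability, T/C: luminescence signal used as surrogate for viable cell content; 100% = DMSO vehicle control viability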
Settings: second compound 10 µM; first compound 3.16 µM; stronger effect = lower value
Reported viability, T/C values for a set of compounds

>  <compound>
CNCc1ccc(-c2[nH]c3cc(F)cc4c3c2CCNC4=O)cc1 + Cc1cccc(N(C)C(=O)C2C(O)CCN2c2nc(C)cc(C(F)(F)F)c2C#N)c1

>  <viability, T/C [%]>
106

$$$$
>  <compound>
O=c1[nH]cc(F)c(=O)[nH]1 + Cc1cccc(N(C)C(=O)C2C(O)CCN2c2nc(C)cc(C(F)(F)F)c2C#N)c1

>  <viability, T/C [%]>
104

$$$$
>  <compound>
O=C(Nc1ccc(O)c(NS(=O)(=O)c2ccc(F)cc2)c1)c1ccc(-c2ccccc2)cc1 + COC1C(OC(N)=O)C(O)C(Oc2ccc3c(O)c(NC(=O)c4ccc(O)c(CC=C(C)C)c4)c(=O)oc3c2C)OC1(C)C

>  <viability, T/C [%]>
108

$$$$
>  <compound>
CNCc1ccc(-c2[nH]c3cc(F)cc4c3c2CCNC4=O)cc1 + COC1C(OC(N)=O)C(O)C(Oc2ccc3c(O)c(NC(=O)c4ccc(O)c(CC=C(C)C)c4)c(=O)oc3c2C)OC1(C)C

>  <viability, T/C [%]>
98.5

$$$$

###

System: 873145-292-R-J1-PDC complex spheroid viability
Experiment: Anticancer human tumor 873145-292-R-J1-PDC cell line growth inhibition [POLQ];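 note: spheroids exposed to compounds for 7 days before viability readout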
Conditions: curve of first compound; second compound 1 µM
pIC50: −log10 of the molar value.

>  <compound>
O=C(c1cc(Cc2n[nH]c(=O)c3ccccc23)ccc1F)N1CCN(C(=O)C2CC2)CC1 + COC1C(OC(N)=O)C(O)C(Oc2ccc3c(O)c(NC(=O)c4ccc(O)c(CC=C(C)C)c4)c(=O)oc3c2C)OC1(C)C

>  <target>
873145-292-R-J1-PDC complex spheroid viability

>  <pIC50>
< 5.00

$$$$
>  <compound>
CCCS(=O)(=O)Nc1ccc(F)c(C(=O)c2c[nH]c3ncc(-c4ccc(Cl)cc4)cc23)c1F + Nc1ccc(C#CCN(C(=O)Cc2ncc(C(F)(F)F)cc2C(F)(F)F)c2ccc(F)cc2)nn1

>  <target>
873145-292-R-J1-PDC complex spheroid viability

>  <pIC50>
< 5.00

$$$$
>  <compound>
COc1cccc(OCCCN)c1-c1cc(Nc2cnc(C#N)cn2)n[nH]1 + Cc1cccc(N(C)C(=O)C2C(O)CCN2c2nc(C)cc(C(F)(F)F)c2C#N)c1

>  <target>
873145-292-R-J1-PDC complex spheroid viability

>  <pIC50>
< 6.00

$$$$

###

System: 873145-292-R-J1-PDC complex spheroid viability
Assay: Anticancer human tumor 873145-292-R-J1-PDC cell line growth inhibition [POLQ];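 note: spheroids exposed to compounds for 7 days before viability readout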;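 for viability, T/C: luminescence signal used as surrogate for viable cell content; 100% = DMSO vehicle control viability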
Conditions: second compound 0.316 µM; first compound 1 µM; stronger effect = lower value
Reported viability, T/C values for a set of compounds
property-name: viability, T/C (%)

>  <compound>
O=C(Nc1ccc(O)c(NS(=O)(=O)c2ccc(F)cc2)c1)c1ccc(-c2ccccc2)cc1 + Cc1cccc(N(C)C(=O)C2C(O)CCN2c2nc(C)cc(C(F)(F)F)c2C#N)c1

>  <measurement-units>
%

>  <observed>
92.8

$$$$
>  <compound>
CC1COCCN1c1cc(C2(O)CC3CCC(C2)O3)c2cnn(-c3ccn[nH]3)c2n1 (configuration not stated) + COC1C(OC(N)=O)C(O)C(Oc2ccc3c(O)c(NC(=O)c4ccc(O)c(CC=C(C)C)c4)c(=O)oc3c2C)OC1(C)C

>  <measurement-units>
%

>  <observed>
40.2

$$$$
>  <compound>
O=C(c1cc(Cc2n[nH]c(=O)c3ccccc23)ccc1F)N1CCN(C(=O)C2CC2)CC1 + Nc1ccc(C#CCN(C(=O)Cc2ncc(C(F)(F)F)cc2C(F)(F)F)c2ccc(F)cc2)nn1

>  <measurement-units>
%

>  <observed>
105

$$$$
>  <compound>
C=CC(=O)N1CCN(c2nc(=O)n(-c3c(C)ccnc3C(C)C)c3nc(-c4c(O)cccc4F)c(F)cc23)C(C)C1 (configuration not stated) + COC1C(OC(N)=O)C(O)C(Oc2ccc3c(O)c(NC(=O)c4ccc(O)c(CC=C(C)C)c4)c(=O)oc3c2C)OC1(C)C

>  <measurement-units>
%

>  <observed>
113

$$$$
>  <compound>
Nc1ccn(C2OC(CO)C(O)C2(F)F)c(=O)n1 (configuration not stated) + Nc1ccc(C#CCN(C(=O)Cc2ncc(C(F)(F)F)cc2C(F)(F)F)c2ccc(F)cc2)nn1

>  <measurement-units>
%

>  <observed>
54.8

$$$$
>  <compound>
COc1ccc([C@@H](O)c2cc(-c3ncnc4cc(N5CCOCC5)ccc34)c(F)cc2Cl)nn1 + Cc1cccc(N(C)C(=O)C2C(O)CCN2c2nc(C)cc(C(F)(F)F)c2C#N)c1

>  <measurement-units>
%

>  <observed>
65.2

$$$$
>  <compound>
CC1COCCN1c1cc(C2(S(C)(=N)=O)CC2)nc(-c2ccnc3[nH]ccc23)n1 (configuration not stated) + COC1C(OC(N)=O)C(O)C(Oc2ccc3c(O)c(NC(=O)c4ccc(O)c(CC=C(C)C)c4)c(=O)oc3c2C)OC1(C)C

>  <measurement-units>
%

>  <observed>
82.7

$$$$
>  <compound>
C=CCn1c(=O)c2cnc(Nc3ccc(N4CCN(C)CC4)cc3)nc2n1-c1cccc(C(C)(C)O)n1 + Cc1cccc(N(C)C(=O)C2C(O)CCN2c2nc(C)cc(C(F)(F)F)c2C#N)c1

>  <measurement-units>
%

>  <observed>
74.9

$$$$
>  <compound>
CCc1cc2c(N3CCc4c(cc(Cn5ccnc5)cc4-c4cn(C)nc4C(F)(F)F)C3=O)cc(C)nc2c(OC)n1 + Nc1ccc(C#CCN(C(=O)Cc2ncc(C(F)(F)F)cc2C(F)(F)F)c2ccc(F)cc2)nn1

>  <measurement-units>
%

>  <observed>
90.7

$$$$
>  <compound>
C#Cc1c(F)ccc2cc(O)cc(-c3ncc4c(N5CC6CCC(C5)N6)nc(OCC56CCCN5CC(F)C6)nc4c3F)c12 (configuration not stated) + Nc1ccc(C#CCN(C(=O)Cc2ncc(C(F)(F)F)cc2C(F)(F)F)c2ccc(F)cc2)nn1

>  <measurement-units>
%

>  <observed>
104

$$$$
>  <compound>
CCCS(=O)(=O)Nc1ccc(F)c(C(=O)c2c[nH]c3ncc(-c4ccc(Cl)cc4)cc23)c1F + Nc1ccc(C#CCN(C(=O)Cc2ncc(C(F)(F)F)cc2C(F)(F)F)c2ccc(F)cc2)nn1

>  <measurement-units>
%

>  <observed>
112

$$$$
>  <compound>
CCc1c2c(nc3ccc(O)cc13)-c1cc3c(c(=O)n1C2)COC(=O)[C@]3(O)CC + Cc1cccc(N(C)C(=O)C2C(O)CCN2c2nc(C)cc(C(F)(F)F)c2C#N)c1

>  <measurement-units>
%

>  <observed>
26.1

$$$$
